tested on: GP1 receptor; assay: PI hydrolysis stimulated by GLU in cerebellar granule cells; type: cell-based, rat; conditions: 20 μM GLU (Table 2); * = antagonistic activity
Measured PI hydrolysis % of stimulation by 20 μM GLU by item
A number alone suffices; assume %.

Req: Report value only: PI hydrolysis % of stimulation by 20 μM GLU, GP1 receptor, O=C(O)[C@@H]1C[C@H](C(=O)O)N1 [Az5, cis-azetidine-2,4-dicarboxylic acid]
Resp: 124

Req: Report its PI hydrolysis % of stimulation by 20 μM GLU with GP1 receptor as the test system: CC(C)(C)OC(=O)[C@H]1C[C@@H](C(=O)O)N1 (relative stereo)
Resp: 125

Req: Output reported PI hydrolysis % of stimulation by 20 μM GLU of the compound O=C(O)[C@H]1C[C@H](C(=O)O)N1 (relative stereo) [Az6, trans-azetidine-2,4-dicarboxylic acid] on GP1 receptor.
Resp: 83

Req: Print GP1 receptor PI hydrolysis % of stimulation by 20 μM GLU for COC(=O)[C@@H]1C[C@H](C(=O)OC(C)(C)C)N1 (relative stereo) .
Resp: 117

Moving on to the next compound.
Req: GET PI hydrolysis % of stimulation by 20 μM GLU | system: GP1 receptor | item: CC(C)(C)OC(=O)[C@H]1C[C@H](C(=O)O)N1 (relative stereo)
Resp: 109

###

system: GC1 receptor; experiment: calcium influx stimulated by GLU in the absence and presence of Az5; format: cell-based, rat; conditions: in the absence of Az5
readout_label: EC50
Answer by giving the amount and then stating its unit.

Req: Report measured EC50; entry is N[C@@H](CCC(=O)O)C(=O)O [GLU, Glutamate]
Resp: 51 µM
